target-system: T1, human TREM2 full length stalk region peptide (aa 129-172) (human, biotinylated (site not stated))
T1 construct: also called Human TREM2 peptide (aa 129-172); full-length TREM2 stalk peptide
T1 peptide: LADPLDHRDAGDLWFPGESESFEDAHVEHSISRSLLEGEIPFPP
protocol-notes: ELISA on biotinylated peptide captured by streptavidin; A450 normalised to isotype control
Would you mind telling me the reported fold over background (A450) of each entry?
Your answer should be a plain number; it is taken to be in fold.

The binder identified as CL0020120 (antibody, V domains shown, also called Clone CL0020120) VH: EVQLQQSGPELVRTGASVKISCRASSYSFTDNYIHWVKQTHGRSLEWIGYISGYTGATSYNQKFKGKATFTVDTSSSTAYMQFNSLTSEDSAVYYCARSTMIAPYGMDYWGQGTSVTVSS VL: DIVMTQSHKFMSTSVGDRVNITCKASQDVVTAVAWYQQKPGQSPKLLIYWASTRHTGVPDRFTGSGSGTDFTLTISNVQSEDLADYFCQQYSRYPLTFGAGTKLELK registered its fold over background (A450) at 1.2

The binder listed as CL0020206 (antibody, V domains shown, also called Clone CL0020206) VH: EVQLQQSGPVLVKPGASVKMSCKASGYTFTDYYMNWVKQSHGKSLEWIGIINPYSGGISYNQKFKGKAILTVDKSSSTAYMELNSLTSEASAVYYCTRRNWDGRYAMDYWGQGTSVTVSS VL: DIVMTQSHKFMSTSVGDRVSITYKASQDVGSAVAWYQQKPGQSPKLLIYWTSTRHTGVPDRFTGSGSGTDFTLTISNVQSEDLADYFCQQYSSYPFTFGGGTKLEIK shows fold over background (A450) equal to 1.8

// fold over background (A450) value for CL0020314 (antibody, V domains shown, also called Clone CL0020314) VH: DVKLVESGGGLVKLGGSLKLSCAASGFTFSSYYMSWVRQTPEKRLELVAAINTNGGRTYYPDTVKGRFTISRDNAKNTLYLQMSSLKSEDTALYYCARESDGGAFAYWGQGTLVTVSA VL: DVVMTQTPLSLPVSLGDQASISCRSSQSLVHSNGNTYLHWYLQKPGQSPKLLIYKVSNRFSGVPDRFSGSGSGTDFTLKISRVEAEDLGVYFCSQNTHVPLTFGAGTKLELK : 11

For CL0020188 (antibody, V domains shown, also called Clone CL0020188) VH: EVKLLDSGGGLVQAGGSLRLSCAGSGFTFTDFYMSWIRQPPGKAPEWLGVIRNKANGYTAGYNPSVKGRFTISRDNTQNILYLQMNTLRAEDTAIYYCARLTYGFDYWGQGVMVTVSS VL: DIVMTQGALPNPVPSGESASITCQSSKSLLHSNGKTYLNWYLQRPGQSPQLLIYWMSTRASGVSDRFSGSGSGTDFTLKISSVEAEDVGVYYCQQFLEYPFTFGSGTKLEIK the binder record lists fold over background (A450) as 51

// fold over background (A450) value for CL0020195 (antibody, V domains shown, also called Clone CL0020195) VH: EVQLVESGGGLVQPGRSMMLSCSASGFTFSNYHMAWVRQAPTTGLEWVASITTGSGNTYYRHSVKGRFTISRDNAKSTLYLQMDSLRSEDTASYYCARRWYGGYEGYYFDYWGQGVMVTVSS VL: DIQMTQSPSLLSASVGDRVTLSCKAGQNVNNYLAWYQQKLGEAPKLLIYNANILQTGFPSRFSGTGSGTDFTLTISSLQPEDVATYFCQQYNSWTTFGGGTKLELK : 1.3

So, CL0020315 (antibody, V domains shown, also called Clone CL0020315) VH: EVQLQQSGPELVKPGASVKISCKASGYTFTDYNIHWVKQSHGKSLEWIGYIYPYNGVTGYNQKFKSKATLTVDNSSSTAYMELRSLTSEDSAVYYCARSRVDGDYWGQGTTLTVSS VL: DVVMTQTPLSLPVSLGDQASISCRSSQSLVHSNGNTYLHWYLQKPGQSPKLLIYKISNRFSGVPDRFSGSGSGTDFTLKISRVEAEDLGVYFCSQSTHVPLTFGAGTKLELK ? Its fold over background (A450) was 8.7

The value of fold over background (A450) measured for the binder CL0020096 (antibody, V domains shown, also called Clone CL0020096) VH: QIQLVQSGPELRKPGETVKISCKASGYTFTTYGMSWVKQAPGKGLKWMGWINTYSGLPRHSDDFKGRFAFSLETSASTAYLQINNLKNEDTATYFCAREVYYGSRKTAWFAYWGQGTLVTVSA VL: DLVMSQSPSSLAVSVGERVTMSCKSSQSLLYSNDQKNYLAWYQQIPGQSPKLLIYWASTRESGVPDRFTGSGSGTDFTLTISSVKAEDLAVYFCQQYYSYPPTFGAGTKLELK turned out to be 45

Lab book: fold over background (A450) of CL0020186 (antibody, V domains shown, also called Clone CL0020186) VH: EVQLVESGGGLVQPGRSLKLSCPASGFTFSYYGMAWVRQAPTKGLEWVASISTGGGNTYYRDSVKGRFTISRDNAKNTLYLQMDSLRSEDTATYYCARGDIGTAYWFTYWGQGTLVTVSS VL: NIQLTQSPSLLSASVGDRVTLSCKGSQNINNYLAWYQQKLGEAPKLLIYKTNSLLTGIPSRFSGSGSGTDYTLTISSLHSEDLATYYCYQYNNGWTFGGGTKLELK noted as 4.9
